test system: 299254-011-R-J1-PDC complex spheroids viability; experiment: Anticancer human tumor 299254-011-R-J1-PDC patient-derived melanoma cell line growth inhibition [GQUAD]; settings: second compound 0.1 µM; first compound 0.00999 µM; hits give low values
readout name: viability, T/C

Examples with answers:
compound="Cc1[nH]c2ccccc2c1CCNCc1ccc(/C=C/C(=O)NO)cc1 + Cc1[nH]c2ccc(F)cc2c1-c1nc2c3cccnc3c3ncccc3c2[nH]1" readout_name="viability, T/C" endpoint_value=81.8%
compound="CCc1c2c(nc3ccc(O)cc13)-c1cc3c(c(=O)n1C2)COC(=O)[C@]3(O)CC + Cc1[nH]c2ccc(F)cc2c1-c1nc2c3cccnc3c3ncccc3c2[nH]1" readout_name="viability, T/C" endpoint_value=85.4%
compound="CC[C@@]1(O)C(=O)OCc2c1cc1n(c2=O)Cc2cc3c(CN(C)C)c(O)ccc3nc2-1 + Cc1[nH]c2ccc(F)cc2c1-c1nc2c3cccnc3c3ncccc3c2[nH]1" readout_name="viability, T/C" endpoint_value=112%
compound="Cc1[nH]c2ccccc2c1CCNCc1ccc(/C=C/C(=O)NO)cc1 + CN(C)c1ccc(Nc2c3ccc(NC(=O)CCN4CCCC4)cc3nc3cc(NC(=O)CCN4CCCC4)ccc23)cc1" readout_name="viability, T/C" endpoint_value=86.8%
compound="Cn1ncnc1[C@H]1c2n[nH]c(=O)c3cc(F)cc(c23)N[C@@H]1c1ccc(F)cc1 + Cc1cnc(CNC(=O)c2c(=O)c3ccc(N4CCCN(C)CC4)nc3n3c2sc2ccccc23)cn1" readout_name="viability, T/C" endpoint_value=91.4%

Inquiry: Please report the measured viability, T/C for CCc1c2c(nc3ccc(O)cc13)-c1cc3c(c(=O)n1C2)COC(=O)[C@]3(O)CC + Cc1cnc(CNC(=O)c2c(=O)c3ccc(N4CCCN(C)CC4)nc3n3c2sc2ccccc23)cn1
Reply text: 76.5%

----------
Consider the following molecules and their measured viability, T/C readings.
tested on: 299254-011-R-J1-PDC complex spheroids viability; test: Anticancer human tumor 299254-011-R-J1-PDC cell line growth inhibition [GQUAD]; conditions: second compound 0.316 µM; first compound 1 µM; hits give low values
Answer format: numeric, % implied, no suffix.

molecule="COc1cc(C2c3cc4c(cc3C(OC3OC5COC(C)OC5C(O)C3O)C3COC(=O)C23)OCO4)cc(OC)c1O (stereo not given) + Cc1cnc(CNC(=O)c2c(=O)c3ccc(N4CCCN(C)CC4)nc3n3c2sc2ccccc23)cn1" unit_symbol=% endpoint_value=105
molecule="CC1COCCN1c1cc(-c2ccnn2C)c2ccnc(-c3ccn[nH]3)c2n1 (stereo not given) + Cc1cnc(CNC(=O)c2c(=O)c3ccc(N4CCCN(C)CC4)nc3n3c2sc2ccccc23)cn1" unit_symbol=% endpoint_value=17.5
molecule="CC(=O)O[C@H]1C(=O)[C@@]2(C)[C@H]([C@H](OC(=O)c3ccccc3)[C@]3(O)C[C@H](OC(=O)[C@H](O)[C@@H](NC(=O)c4ccccc4)c4ccccc4)C(C)=C1C3(C)C)[C@]1(OC(C)=O)CO[C@@H]1C[C@@H]2O + Cc1cnc(CNC(=O)c2c(=O)c3ccc(N4CCCN(C)CC4)nc3n3c2sc2ccccc23)cn1" unit_symbol=% endpoint_value=32.1
molecule="O=C(NO)c1cnc(N2CCN(S(=O)(=O)c3ccc4ccccc4c3)CC2)nc1 + CN(C)c1ccc(Nc2c3ccc(NC(=O)CCN4CCCC4)cc3nc3cc(NC(=O)CCN4CCCC4)ccc23)cc1" unit_symbol=% endpoint_value=3.85

Could you now consider this next molecule?
Inquiry: Given COc1cccc2c1C(=O)c1c(O)c3c(c(O)c1C2=O)CC(O)(C(=O)CO)CC3OC1CC(N)C(O)C(C)O1 (stereo not given) + CN(C)c1ccc(Nc2c3ccc(NC(=O)CCN4CCCC4)cc3nc3cc(NC(=O)CCN4CCCC4)ccc23)cc1 , respond with its viability, T/C.
Reply text: 87.1

----------
system: 299254-011-R-J1-PDC complex spheroids viability; assay: Anticancer human tumor 299254-011-R-J1-PDC cell line growth inhibition [GQUAD]; details: second compound 3.16 µM; first compound 1 µM; hits give low values;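 further: spheroids exposed to the agents for seven days before readout; percent viability relative to DMSO vehicle control wells = 100%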
Item-by-item account of viability, T/C
Answer with a number only, understood to be in %.

In the examples that follow, each entry is paired with its recorded viability, T/C.
molecule="COc1ncnc(C2CC2)c1-c1ncc2cnn(Cc3ccc(-c4nc(C(F)(F)F)cn4C(C)C)cc3)c2n1 + CN(C)c1ccc(Nc2c3ccc(NC(=O)CCN4CCCC4)cc3nc3cc(NC(=O)CCN4CCCC4)ccc23)cc1" experimental_target="299254-011-R-J1-PDC complex spheroids viability" endpoint_value=105
molecule="C=CC(=O)N1CCN(c2nc(=O)n(-c3c(C)ccnc3C(C)C)c3nc(-c4c(O)cccc4F)c(F)cc23)C(C)C1 (stereo not drawn) + Cc1[nH]c2ccc(F)cc2c1-c1nc2c3cccnc3c3ncccc3c2[nH]1" experimental_target="299254-011-R-J1-PDC complex spheroids viability" endpoint_value=78.4

Continue with the next molecule.
Inquiry: Read the entry CC1COCCN1c1cc(C2(O)CC3CCC(C2)O3)c2cnn(-c3ccn[nH]3)c2n1 (stereo not drawn) + CN(C)c1ccc(Nc2c3ccc(NC(=O)CCN4CCCC4)cc3nc3cc(NC(=O)CCN4CCCC4)ccc23)cc1 and write its reported viability, T/C.
Reply text: 19.2

----------
Form field: viability, T/C (one value per entry).
tested on: 299254-011-R-J1-PDC complex spheroids viability; test: Anticancer human tumor 299254-011-R-J1-PDC cell line growth inhibition [GQUAD]; conditions: second compound 0.1 µM; first compound 1 µM; hits give low values;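 further: spheroids exposed to the agents for seven days before readout; percent viability relative to DMSO vehicle control wells = 100%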

molecule="COc1cccc2c1C(=O)c1c(O)c3c(c(O)c1C2=O)CC(O)(C(=O)CO)CC3OC1CC(N)C(O)C(C)O1 (stereo not given) + Cc1[nH]c2ccc(F)cc2c1-c1nc2c3cccnc3c3ncccc3c2[nH]1" endpoint_value=66.4%
molecule="Cc1cccc(N(C)C(=O)C2C(O)CCN2c2nc(C)cc(C(F)(F)F)c2C#N)c1 (stereo not given) + CN(C)c1ccc(Nc2c3ccc(NC(=O)CCN4CCCC4)cc3nc3cc(NC(=O)CCN4CCCC4)ccc23)cc1" endpoint_value=83.4%
molecule="C=CCn1c(=O)c2cnc(Nc3ccc(N4CCN(C)CC4)cc3)nc2n1-c1cccc(C(C)(C)O)n1 + CN(C)c1ccc(Nc2c3ccc(NC(=O)CCN4CCCC4)cc3nc3cc(NC(=O)CCN4CCCC4)ccc23)cc1" endpoint_value=69.6%
molecule="O=C(NO)c1cnc(N2CCN(S(=O)(=O)c3ccc4ccccc4c3)CC2)nc1 + Cc1[nH]c2ccc(F)cc2c1-c1nc2c3cccnc3c3ncccc3c2[nH]1" endpoint_value=18.1%

Turning now to a further record.
Inquiry: Name the recorded viability, T/C of the molecule listed here: CCCS(=O)(=O)Nc1ccc(F)c(C(=O)c2c[nH]c3ncc(-c4ccc(Cl)cc4)cc23)c1F + Cc1cnc(CNC(=O)c2c(=O)c3ccc(N4CCCN(C)CC4)nc3n3c2sc2ccccc23)cn1
Reply text: 128%

----------
tested on: 299254-011-R-J1-PDC complex spheroids viability; test: Anticancer human tumor 299254-011-R-J1-PDC cell line growth inhibition [GQUAD]; settings: second compound 0.0316 µM; first compound 0.0999 µM; hits give low values;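 further: spheroids exposed to the agents for seven days before readout; percent viability relative to DMSO vehicle control wells = 100%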
readout name: viability, T/C (%)
The reply should contain only the number, in %.

molecule="CCc1c2c(nc3ccc(O)cc13)-c1cc3c(c(=O)n1C2)COC(=O)[C@]3(O)CC + Cc1cnc(CNC(=O)c2c(=O)c3ccc(N4CCCN(C)CC4)nc3n3c2sc2ccccc23)cn1" endpoint_value=76.7
molecule="CCc1c2c(nc3ccc(O)cc13)-c1cc3c(c(=O)n1C2)COC(=O)[C@]3(O)CC + CN(C)c1ccc(Nc2c3ccc(NC(=O)CCN4CCCC4)cc3nc3cc(NC(=O)CCN4CCCC4)ccc23)cc1" endpoint_value=90.8

Inquiry: Answer with the recorded viability, T/C for the molecule listed here: CC[C@@]1(O)C(=O)OCc2c1cc1n(c2=O)Cc2cc3c(CN(C)C)c(O)ccc3nc2-1 + Cc1[nH]c2ccc(F)cc2c1-c1nc2c3cccnc3c3ncccc3c2[nH]1
Reply text: 86

----------
tested on: 299254-011-R-J1-PDC complex spheroids viability; assay: Anticancer human tumor 299254-011-R-J1-PDC cell line growth inhibition [GQUAD]; conditions: second compound 3.16 µM; first compound 0.00999 µM; hits give low values;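 further: spheroids exposed to the agents for seven days before readout; percent viability relative to DMSO vehicle control wells = 100%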
readout name: viability, T/C

// solved cases for viability, T/C follow
molecule="CCc1c2c(nc3ccc(O)cc13)-c1cc3c(c(=O)n1C2)COC(=O)[C@]3(O)CC + Cc1[nH]c2ccc(F)cc2c1-c1nc2c3cccnc3c3ncccc3c2[nH]1" readout_name="viability, T/C" endpoint_value=75.7%
molecule="CCc1c2c(nc3ccc(O)cc13)-c1cc3c(c(=O)n1C2)COC(=O)[C@]3(O)CC + CN(C)c1ccc(Nc2c3ccc(NC(=O)CCN4CCCC4)cc3nc3cc(NC(=O)CCN4CCCC4)ccc23)cc1" readout_name="viability, T/C" endpoint_value=76.1%

Consider now this further molecule.
Inquiry: Please report viability, T/C with 299254-011-R-J1-PDC complex spheroids viability for item Cn1ncnc1[C@H]1c2n[nH]c(=O)c3cc(F)cc(c23)N[C@@H]1c1ccc(F)cc1 + CN(C)c1ccc(Nc2c3ccc(NC(=O)CCN4CCCC4)cc3nc3cc(NC(=O)CCN4CCCC4)ccc23)cc1 .
Reply text: 101%
